system tested: Cytochrome P450 2C9 (Homo sapiens)
Sequence (P11712 whole entry): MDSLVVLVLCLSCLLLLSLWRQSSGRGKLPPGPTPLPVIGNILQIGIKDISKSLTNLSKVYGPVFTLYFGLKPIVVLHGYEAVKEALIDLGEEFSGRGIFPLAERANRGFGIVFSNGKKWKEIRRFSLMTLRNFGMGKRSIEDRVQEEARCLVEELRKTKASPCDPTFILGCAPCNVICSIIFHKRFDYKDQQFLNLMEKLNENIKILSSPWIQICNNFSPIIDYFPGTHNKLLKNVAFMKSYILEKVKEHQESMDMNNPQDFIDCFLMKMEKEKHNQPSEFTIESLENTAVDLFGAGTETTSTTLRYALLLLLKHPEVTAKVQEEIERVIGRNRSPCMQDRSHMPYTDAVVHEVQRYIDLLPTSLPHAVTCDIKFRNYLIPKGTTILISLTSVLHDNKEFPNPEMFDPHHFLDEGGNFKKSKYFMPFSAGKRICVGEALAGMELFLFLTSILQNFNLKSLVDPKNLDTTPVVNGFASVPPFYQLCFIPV

compound: CCN1CCC(c2ccc(Nc3cc(N(C)C(=O)Nc4c(Cl)c(OC)cc(OC)c4Cl)ncn3)cc2)CC1
system tested: Cytochrome P450 2C9 (Homo sapiens)
IC50: 4 µM

compound: CCN1CCN(c2ccc(Nc3cc(N(C)C(=O)Nc4c(Cl)c(OC)cc(OC)c4Cl)ncn3)cc2)CC1.O=P(O)(O)O [INFIGRATINIB PHOSPHATE]
system tested: Cytochrome P450 2C9 (Homo sapiens)
IC50: > 10 µM

compound: COc1cc(OC)c(Cl)c(NC(=O)N(C)c2cc(Nc3cccc(CN(C)C)c3)ncn2)c1Cl
system tested: Cytochrome P450 2C9 (Homo sapiens)
IC50: > 10 µM

compound: COc1cc(OC)c(Cl)c(NC(=O)N(C)c2cc(Nc3ccc(OCCN4CCCC4)cc3)ncn2)c1Cl
system tested: Cytochrome P450 2C9 (Homo sapiens)
IC50: > 10 µM

compound: COc1cc(OC)c(Cl)c(NC(=O)N(C)c2cc(Nc3cccc(CN4CCN(C)CC4)c3)ncn2)c1Cl
system tested: Cytochrome P450 2C9 (Homo sapiens)
IC50: > 10 µM
